System: PAF-induced platelet aggregation
Test: Platelet aggregation assay: inhibition of platelet aggregation induced by PAF (in vitro)
Type: cell-based
Settings: Homo sapiens, in vitro, known compounds, for purposes of comparison, read-out: PAF antagonism (in vitro) IC50
quantity_kind: IC50

Query the reported IC50 for PAF-induced platelet aggregation; item: CC(=O)N1CCC(=C2c3ccc(Cl)cc3CCc3cccnc32)CC1 [Compound B, reference compound] 610 nM
